Test system: ATP;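 note: ATP exposure 15 min at 22 °C before imaging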
TEST_PROTOCOL: switch fluorescence ratio, 500 uM ATP over buffer (Cy3 cluster intensity, sum of 5 cycles each) (fold (ratio)); higher = stronger signal-on switching upon ATP binding; sequences stand for … in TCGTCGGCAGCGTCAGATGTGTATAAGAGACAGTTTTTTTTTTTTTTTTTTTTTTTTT…TC
ASSAY_CONDITIONS: aptamer strand: ATP DNA aptamer (quencher-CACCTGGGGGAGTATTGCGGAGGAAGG + anchor), 100 nM annealed; ATP concentration: 500 uM
Would you mind telling me the reported switch fluorescence ratio of each entry?
Form rule: numeric answer, no unit written next to it.

CGATGTAGTT on ATP gives switch fluorescence ratio = 0.995

Summary line: TTGGCTGTAG , ATP, reported switch fluorescence ratio = 1.13

switch fluorescence ratio value, target or system ATP, for AACTGAGATT : 1.02

Observed switch fluorescence ratio on ATP, entry CCATGGGAAA , equals 0.961

Form field, switch fluorescence ratio with ATP, item TAAGTCAGCT : 1

The sequence ACGACTGTTA , tested on ATP, showed switch fluorescence ratio of 1.04

Bench note, ATP: TTAGGGTATG , switch fluorescence ratio reads 1.03

Assay ATP, sample CATCGCTGTG , switch fluorescence ratio read: 0.998

# lookup: TATCGGGTGG on ATP, switch fluorescence ratio = 1.01

Field switch fluorescence ratio (system: ATP) for entry GCACCAATT = 1.06

The reported switch fluorescence ratio value, ATP, for GCACTTTTCG reads 1.01

Bench note, ATP: entry ACCGGTTATA , its switch fluorescence ratio = 1.03

For the sequence CGGGGGGGGC , the measured switch fluorescence ratio on ATP was 1.02

Here GGTACGGGGT was tested on ATP, and its switch fluorescence ratio came to 1

Summary line: TTTATACCTA , ATP, reported switch fluorescence ratio = 1.03

Value (switch fluorescence ratio, ATP) for record TAATGCATTT = 1.01

Lab note: sequence GGTACGGATC tested on ATP; recorded switch fluorescence ratio was 1.03

The reported switch fluorescence ratio value, ATP, for GGAGGAGTGT reads 0.959

ATP switch fluorescence ratio of TTCTTTTATG is 1.02

switch fluorescence ratio value, target or system ATP, for AGGTATTGGA : 0.985

Entry AATGTCATCA , ATP data, switch fluorescence ratio value: 0.993

Reported ATP switch fluorescence ratio for item TTACTGGGGA was 1.04

Reported switch fluorescence ratio (ATP) for entry TTTTAGGCTC is 1.03

Assay ATP, sample TGTCGTGACA , switch fluorescence ratio read: 1.01

I looked up GGGTGATCGT and its switch fluorescence ratio for ATP was 0.997

So the reported switch fluorescence ratio for TTTCGCATGA , on ATP, turned out to be 1.22

# value of switch fluorescence ratio, ATP, item AGCTTCAGGG = 1.01

Bench note, ATP: entry AATCCAAAAG , its switch fluorescence ratio = 1.03

Short answer on ATP for TTGGTTGAGA , switch fluorescence ratio: 0.994

The value of switch fluorescence ratio recorded for GGGGGCGTCA when tested on ATP reads 1.02

Bench note, ATP: entry CATGGGCTAG , its switch fluorescence ratio = 0.997

Reading of switch fluorescence ratio for TGGAGGGTTT with ATP: 1.07

switch fluorescence ratio for ATP with input TGGTTTGGCT equals 1.03

Bench note, ATP: CCACTAGGGC , switch fluorescence ratio reads 1.09

Tested on ATP, the item TAATGAGTTA showed switch fluorescence ratio equal to 0.966

Observed switch fluorescence ratio on ATP, entry AAGCGGGGAA , equals 1.02

Form: item ATTAATTGGG ; test system ATP; switch fluorescence ratio: 1.01

Noted switch fluorescence ratio for GCATATGGTT , tested on ATP: 0.988

* * *

Test system: ATP;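 note: ATP exposure 15 min at 22 °C before imaging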
TEST_PROTOCOL: switch fluorescence ratio, 500 uM ATP over buffer (Cy3 cluster intensity, sum of 5 cycles each) (fold (ratio)); higher = stronger signal-on switching upon ATP binding; sequences stand for … in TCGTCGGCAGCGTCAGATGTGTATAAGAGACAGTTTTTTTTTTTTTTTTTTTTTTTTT…TC
ASSAY_CONDITIONS: aptamer strand: ATP DNA aptamer (quencher-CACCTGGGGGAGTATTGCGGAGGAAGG + anchor), 100 nM annealed; ATP concentration: 500 uM
QUANTITY_MEASURED: switch fluorescence ratio
Response field accepts a number only; no unit should be typed.

Query GAGGTTTATA yields switch fluorescence ratio of 0.984

sequence CCTGGTCCTA , switch fluorescence ratio observed: 0.988

// switch fluorescence ratio value for AACGGGATTA : 0.987

Memo: AAAGAAAAGG , reported switch fluorescence ratio: 0.989

Looking up ATGGTAGTAA , I see its switch fluorescence ratio listed as 1.01

So for GGGTGGTGGT , the logged switch fluorescence ratio turned out to be 0.981

switch fluorescence ratio reading for TGGGTATTGG : 1

Looking up TTTTTAAATC , I see its switch fluorescence ratio listed as 1

// switch fluorescence ratio lookup, sequence = TGGGGGTGGG , result: 1.02

For this sequence ( GTGTGTGGGA ), measured switch fluorescence ratio is 1

Just so you know, measured switch fluorescence ratio for TTCAATAGAA came out at 0.998

What the record says about TTTAGTGAAT : switch fluorescence ratio is 0.997

Per the records, this sequence ( TAGGTAAATT ) has switch fluorescence ratio equal to 1.02

Lookup result for AAGTGAGCAG ; measured switch fluorescence ratio: 1.01

switch fluorescence ratio measured on TTTTGTTAGC = 1.01

Reported switch fluorescence ratio of TATTTATCGG : 0.991

* * *

Test system: ATP;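 note: ATP exposure 15 min at 22 °C before imaging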
TEST_PROTOCOL: switch fluorescence ratio, 500 uM ATP over buffer (Cy3 cluster intensity, sum of 5 cycles each) (fold (ratio)); higher = stronger signal-on switching upon ATP binding; sequences stand for … in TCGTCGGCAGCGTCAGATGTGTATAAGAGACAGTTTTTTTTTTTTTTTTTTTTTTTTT…TC
ASSAY_CONDITIONS: aptamer strand: ATP DNA aptamer (quencher-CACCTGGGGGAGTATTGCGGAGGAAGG + anchor), 100 nM annealed; ATP concentration: 500 uM
QUANTITY_MEASURED: switch fluorescence ratio
No unit in the answer, please; the number alone is enough.

Summary for this sequence, CTGTGGGGGG : switch fluorescence ratio is 0.987

In plain terms, GAGCGAAAGG has a documented switch fluorescence ratio of 0.991

switch fluorescence ratio in this record for ACATGCTACG : 1.05

Notebook: TAAACGGGAT , switch fluorescence ratio read as 0.999

The value of switch fluorescence ratio measured for the sequence AACTGAAGTC turned out to be 0.976

* * *

Tested on: ATP;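 note: ATP exposure 15 min at 22 °C before imaging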
TEST_PROTOCOL: switch fluorescence ratio, 500 uM ATP over buffer (Cy3 cluster intensity, sum of 5 cycles each) (fold (ratio)); higher = stronger signal-on switching upon ATP binding; sequences stand for … in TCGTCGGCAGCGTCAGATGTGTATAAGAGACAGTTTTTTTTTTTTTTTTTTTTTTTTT…TC
ASSAY_CONDITIONS: aptamer strand: ATP DNA aptamer (quencher-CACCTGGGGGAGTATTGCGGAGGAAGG + anchor), 100 nM annealed; ATP concentration: 500 uM
Field: switch fluorescence ratio. Provide a value for each of the sequences that follow.
// no unit, no text: just the number

Per the record, GGACCTGGTT has switch fluorescence ratio of 0.986

Form: sequence = GGGGGCCTTT ; switch fluorescence ratio = 0.995

Notebook: TTACAACGTA , switch fluorescence ratio read as 1

Record summary for GAGCATGGGA : reported switch fluorescence ratio = 1.02

sequence GGTGCGGTCG , switch fluorescence ratio observed: 0.982

Recorded result, TAGATATTGG , switch fluorescence ratio: 1.01

Sample TTTATGCCGG ; switch fluorescence ratio observed: 1.01

Item: TATAACTTGA | switch fluorescence ratio: 1.02

The reported value for GGGGAAAAAT in terms of switch fluorescence ratio is 1.01

// field: switch fluorescence ratio; key: TTGGCGGAGG ; value = 1.01

TTGGGGGATT has a reported switch fluorescence ratio of 1

// sample CATGAGAAGG , its switch fluorescence ratio was 1.02

Noted for GGTGGTTGGC : its switch fluorescence ratio reads 1.01

Lab note: ATTTGGTTAG gave switch fluorescence ratio of 0.987

In plain terms, TTGGTTATCG has a documented switch fluorescence ratio of 0.971

Briefly, switch fluorescence ratio measured for TTTAGGTCAA : 0.994

GGGCAGATAT has a reported switch fluorescence ratio of 1.02

Data point: CGGATCGGTG ; switch fluorescence ratio = 0.991

The reported value for TATTTCCTGT in terms of switch fluorescence ratio is 0.993

Form field switch fluorescence ratio, entry TGATTAATGT : 1

The measured switch fluorescence ratio associated with GATAGGTTCG reads 0.983

GET /value?item= GCCGATTACG &field=switch fluorescence ratio returns 1.02

// sample TTGATTATTG , its switch fluorescence ratio was 0.999

Summary for this sequence, TTGTGGAGTT : switch fluorescence ratio is 1.01

Per the record, TGTGCACATT has switch fluorescence ratio of 1.02

The measured switch fluorescence ratio associated with GCGGGGGATC reads 1

The sequence listed as GGTTGGGGGA shows switch fluorescence ratio equal to 1.02

Just so you know, measured switch fluorescence ratio for TACCATGGCG came out at 0.998

GET /value?item= TATTTCGTGG &field=switch fluorescence ratio returns 0.985

Lab note: TTCAGGAGGG gave switch fluorescence ratio of 0.991

Item: GAGGTTGGGA | switch fluorescence ratio: 1.01

// field: switch fluorescence ratio; key: TTAATGCAGG ; value = 1.01

Briefly, switch fluorescence ratio measured for TAGATGACGG : 1.01

So for TGTGGCAGGT , the logged switch fluorescence ratio turned out to be 0.982

Lookup result for GTTCTCCTGA ; measured switch fluorescence ratio: 1.01

Form field switch fluorescence ratio, entry TTGTCGGCTT : 1

Short answer for GTTGGGTCAT : switch fluorescence ratio was 1.01

GET /value?item= TTTCATCTCT &field=switch fluorescence ratio returns 1

Form field switch fluorescence ratio, entry TGGGACGGGG : 0.984

// sample AAGGTTGCAA , its switch fluorescence ratio was 1.01
